target: farnesyl protein transferase (FPT) (Rattus norvegicus, UniProt Q02293+Q04631); construct: were partially purified from rat brain by ammonium sulfate fractionation; from tissue; host or cells: rat brain; experiment: In vitro enzyme assay: inhibition of farnesyl protein transferase (FPT), Ras-CVLS farnesylation; type: biochemical; conditions: Table 2; read-out: FPT IC50
Listed here: items and their measured IC50.
Metric name: IC50

> print(dat)
                                   compound                       experimental.system  metric.name  experimental.value
1  O=C(Cc1cccnc1)N1CCC/C(=C2/c3ccc(Cl)cc3CCc3cccnc32)C1 [Compound E-3J]  farnesyl protein transferase (FPT) (Rattus norvegicus, UniProt Q02293+Q04631)         IC50              5.1 µM
2  O=S(=O)(Cc1ccccc1)N1CCC/C(=C2\c3ccc(Cl)cc3CCc3cccnc32)C1 [Compound E-2N]  farnesyl protein transferase (FPT) (Rattus norvegicus, UniProt Q02293+Q04631)         IC50             > 13 µM
3  CC(=O)Nc1ccc(S(=O)(=O)N2CCC/C(=C3\c4ccc(Cl)cc4CCc4cccnc43)C2)cc1 [Compound E-2J]  farnesyl protein transferase (FPT) (Rattus norvegicus, UniProt Q02293+Q04631)         IC50           > 39.4 µM
4  O=C(Cc1ccccc1)N1CCC/C(=C2\c3ccc(Cl)cc3CCc3cccnc32)C1 [Compound E-7B]  farnesyl protein transferase (FPT) (Rattus norvegicus, UniProt Q02293+Q04631)         IC50             > 14 µM
